Would you kindly list kon for each of these binders?
Target: T1, serum resistance-associated protein (SRA) from Trypanosoma brucei rhodesiense, recombinant SRA (SEQ ID NO: … (Trypanosoma brucei rhodesiense, UniProt O96637 31-274))
T1 construct: also called SRA protein
T1 sequence: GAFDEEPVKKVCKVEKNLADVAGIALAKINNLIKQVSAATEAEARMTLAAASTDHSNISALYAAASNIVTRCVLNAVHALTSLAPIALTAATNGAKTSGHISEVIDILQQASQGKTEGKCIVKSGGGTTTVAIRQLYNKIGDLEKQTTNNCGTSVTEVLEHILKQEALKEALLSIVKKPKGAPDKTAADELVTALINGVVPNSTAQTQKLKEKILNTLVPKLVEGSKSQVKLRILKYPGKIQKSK
Assay: SPR, mAb captured, 25C, pH 7.4
Field format: number, assumed M⁻¹ s⁻¹, no unit text.

Task item: Give its kon value. Item: H1H10031P (antibody, V domains shown, Fully human antibody with human IgG1 Fc (prefix H1H)) VH: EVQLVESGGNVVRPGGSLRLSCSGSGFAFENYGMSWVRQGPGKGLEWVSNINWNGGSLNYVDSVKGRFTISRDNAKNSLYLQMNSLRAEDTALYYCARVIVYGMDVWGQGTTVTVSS VL: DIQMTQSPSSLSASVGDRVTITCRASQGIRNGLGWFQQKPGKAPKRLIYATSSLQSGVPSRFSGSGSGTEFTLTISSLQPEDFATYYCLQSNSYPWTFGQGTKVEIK
Reply: 526000

Task item: Give its kon value. Item: H2aM10201N (antibody, V domains shown, Chimeric antibody, human variable domains and mouse constant domains (mouse Fc, prefix H2aM); also called H2M10201N) VH: QVQLLESGGGVVQPGKSLRLSCVASGSIFSIYGMNWVRQAPGKGLEWVASVSSDGSAKFYADSVKGRFTISRDNSNDTLFLQMTSLRAEDTAVYYCAKTLWNYLFDSWGQGTLVTVSS VL: ENVLTQSPDTLSLSPGERATLSCRASQSITSNYLAWYQQKPGQTPRLLISFTSRRATGIPDRFSGSGSGTVFTLTISRLEPEDFAVYYCQQYGTSLTFGGGAKVEIR
Reply: 642000
